Protein target, amino acids: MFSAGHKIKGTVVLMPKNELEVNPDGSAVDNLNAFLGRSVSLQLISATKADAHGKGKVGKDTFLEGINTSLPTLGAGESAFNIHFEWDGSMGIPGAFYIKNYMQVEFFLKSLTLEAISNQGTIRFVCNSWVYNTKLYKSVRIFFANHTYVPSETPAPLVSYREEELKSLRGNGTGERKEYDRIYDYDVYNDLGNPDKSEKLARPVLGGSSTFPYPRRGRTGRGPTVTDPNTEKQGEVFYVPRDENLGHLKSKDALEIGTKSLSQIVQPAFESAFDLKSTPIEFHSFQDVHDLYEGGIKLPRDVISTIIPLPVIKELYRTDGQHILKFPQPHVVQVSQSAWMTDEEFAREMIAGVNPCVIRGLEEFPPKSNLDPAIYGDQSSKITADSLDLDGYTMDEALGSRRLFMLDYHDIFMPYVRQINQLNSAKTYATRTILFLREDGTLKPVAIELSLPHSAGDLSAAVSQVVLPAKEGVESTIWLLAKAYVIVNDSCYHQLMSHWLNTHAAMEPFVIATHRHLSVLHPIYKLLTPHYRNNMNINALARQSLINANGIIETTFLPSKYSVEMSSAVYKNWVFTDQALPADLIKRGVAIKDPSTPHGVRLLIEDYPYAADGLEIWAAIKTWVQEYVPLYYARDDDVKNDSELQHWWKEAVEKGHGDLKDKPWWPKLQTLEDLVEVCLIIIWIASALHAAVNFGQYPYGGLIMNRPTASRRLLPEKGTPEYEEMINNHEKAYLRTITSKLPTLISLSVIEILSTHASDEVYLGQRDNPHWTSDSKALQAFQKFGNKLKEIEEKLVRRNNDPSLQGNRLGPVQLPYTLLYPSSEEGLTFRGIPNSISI
measurement label: IC50 (µM)
# unit: µM | format: bare number

Recorded IC50, per entry:
# compound, measurement label, assay value
data = [
    ("O=C(OCC1=C[C@@H](O)[C@@H]2C=CO[C@@H](OC3OC(CO)C(O)C(O)C3O)[C@H]12)c1ccc(O)cc1 (stereo partly specified) [Buddlejoside A, 1]", "IC50", 44.3),
    ("COc1ccc(/C=C/C(=O)OC2C(O)C(C)OC(O[C@H]3C4C=CO[C@@H](OC5OC(CO)C(O)C(O)C5O)C4[C@@]4(CO)O[C@@H]34)C2OC(C)=O)cc1 (stereo partly specified) [Buddlejoside A5, 7]", "IC50", 40.4),
    ("COC(=O)[C@@H]1C2C=C[C@@]3(O)CO[C@@H](O[C@@H]1O)C23 (stereo partly drawn) [Beta-gardiol, 5]", "IC50", 47.3),
]

Fill in reported IC50 for this entry: O=C(OCC1=C[C@@H](O)[C@@H]2C=CO[C@@H](OC3OC(CO)C(O)C(O)C3O)[C@H]12)c1ccc(O)c(O)c1 (stereo partly specified) [Buddlejoside B, 2]
39.7

Fill in reported IC50 for this entry: CC(C)CC(=O)OCC1=C[C@@H](O)[C@@H]2C=CC[C@H](OC3OC(CO)C(O)C(O)C3O)[C@H]12 (stereo partly specified) [Buddlejoside C, 3]
52.5

Fill in reported IC50 for this entry: COc1ccc(/C=C/C(=O)OC2C(C)OC(O[C@@H]3C=C(CO)C4C3C=CO[C@H]4OC3OC(CO)C(O)C(O)C3O)C(OC(C)=O)C2O)cc1 (stereo partly specified) [Buddlejoside A2, 6]
41.9
